molecular target: purified HLA DRB1*0701 (Homo sapiens, UniProt P01903+P01911, A100R/A102G/A103Q/D57E/D86V/E43K/F76Y/K127E/L162R/M171V/P40G/Q125H/Q99D/R33Q/R42Y/R54Q/S133A/S66F/T210M/V115G/Y107V/Y59L/Y89S); construct: purified from EBV transformed homozygous cell lines or single MHC allele transfected 721.221, C1R, or fibroblast lines; made in house; assay: HLA-DR radioligand binding inhibition assay, DRB1*0701; settings: IC50 nM purified HLA DRB1 *0701, purified HLA DRB1*0701
value_kind: IC50 (nM)
Give the value, in units of nM, as a plain number.

>  <compound>
CC[C@H](C)[C@H](NC(=O)[C@H](CC(C)C)NC(=O)[C@@H](NC(=O)CNC(=O)CNC(=O)[C@H](CCCCN)NC(=O)[C@H](CC(C)C)NC(=O)[C@@H](NC(=O)[C@H](CCC(=O)O)NC(=O)[C@@H](N)[C@@H](C)O)[C@@H](C)CC)C(C)C)C(=O)N[C@@H](CCC(N)=O)C(=O)N[C@@H](CCCNC(=N)N)C(=O)N[C@@H](CC(N)=O)C(=O)N1CCC[C@H]1C(=O)N[C@@H](CCC(N)=O)C(=O)O [Peptide 9019.0039]

>  <display_unit>
nM

>  <IC50>
2490

$$$$

Write down IC50 measured for item CC[C@H](C)[C@H](NC(=O)CNC(=O)[C@H](CS)NC(=O)[C@@H](N)C(C)C)C(=O)N[C@@H](CCC(N)=O)C(=O)N[C@@H](CC(N)=O)C(=O)N[C@@H](CO)C(=O)N[C@H](C(=O)N[C@@H](CO)C(=O)N[C@@H](C)C(=O)N[C@@H](CC(N)=O)C(=O)N[C@@H](CCCNC(=N)N)C(=O)N[C@@H](CO)C(=O)N[C@@H](CC(=O)O)C(=O)N1CCC[C@H]1C(=O)O)C(C)C [Peptide 9019.0135]
1100

---

Attribute: IC50
target: purified HLA DRB1*0404 (Homo sapiens, UniProt P01903+P01911, A100R/A169T/F76Y/I96L/K127E/L162R/M171V/N62H/P40V/Q125Y/R42H/S133A/S149N/S66Y/V209L/W38E); construct: purified from EBV transformed homozygous cell lines or single MHC allele transfected 721.221, C1R, or fibroblast lines; made in house; assay: HLA-DR radioligand binding inhibition assay, DRB1*0404; conditions: IC50 nM purified HLA DRB1 *0404, purified HLA DRB1*0404
Give the value, in units of nM, as a plain number.

Consider the following illustrative entries.
>  <molecule>
CSCC[C@H](NC(=O)CNC(=O)[C@H](CC(C)C)NC(=O)CNC(=O)[C@H](Cc1ccc(O)cc1)NC(=O)[C@@H](N)CS)C(=O)N[C@@H](CCC(=O)O)C(=O)N[C@@H](Cc1c[nH]cn1)C(=O)N[C@@H](CC(C)C)C(=O)N[C@@H](CCCNC(=N)N)C(=O)N[C@@H](CCC(=O)O)C(=O)N[C@H](C(=O)N[C@@H](CCCNC(=N)N)C(=O)N[C@@H](C)C(=O)N[C@H](C(=O)O)C(C)C)C(C)C [Peptide 9019.0044]

>  <IC50 / nM>
493

$$$$
>  <molecule>
CC[C@H](C)[C@H](NC(=O)CNC(=O)[C@@H](NC(=O)[C@@H](NC(=O)[C@H](C)NC(=O)[C@H](CO)NC(=O)[C@@H](NC(=O)[C@@H](NC(=O)[C@H](CO)NC(=O)[C@@H](NC(=O)[C@H](CC(C)C)NC(=O)[C@@H]1CCCN1C(=O)[C@H](CO)NC(=O)[C@H](C)N)[C@@H](C)O)[C@@H](C)CC)[C@@H](C)CC)C(C)C)C(C)C)C(=O)N[C@@H](CC(C)C)C(=O)O [Peptide 9019.0066]

>  <IC50 / nM>
36

$$$$
>  <molecule>
CC[C@H](C)[C@H](N)C(=O)N[C@@H](CO)C(=O)N[C@@H](C)C(=O)N[C@H](C(=O)N[C@H](C(=O)NCC(=O)N[C@H](C(=O)N[C@@H](CC(C)C)C(=O)N[C@@H](CC(C)C)C(=O)N[C@H](C(=O)N[C@H](C(=O)N[C@H](C(=O)N[C@@H](CC(C)C)C(=O)NCC(=O)N[C@H](C(=O)O)C(C)C)C(C)C)C(C)C)C(C)C)[C@@H](C)CC)C(C)C)C(C)C [Peptide 9019.0067]

>  <IC50 / nM>
3000

$$$$

Write down IC50 measured for item CC[C@H](C)[C@H](NC(=O)[C@H](CCSC)NC(=O)[C@H](Cc1c[nH]c2ccccc12)NC(=O)[C@H](CS)NC(=O)[C@H](CCCCN)NC(=O)[C@@H](NC(=O)[C@H](CCSC)NC(=O)[C@@H](NC(=O)[C@H](CCSC)NC(=O)[C@H](Cc1ccc(O)cc1)NC(=O)[C@@H](NC(=O)[C@@H](N)CC(=O)O)C(C)C)[C@@H](C)CC)C(C)C)C(=O)N[C@@H](CC(=O)O)C(=O)N[C@@H](CO)C(=O)N[C@@H](CCC(=O)O)C(=O)O [Peptide 9019.0094]
7010

---

molecular target: purified HLA DRB1*0101 (Homo sapiens, UniProt P01903+P01911, A100R/D57E/F55L/F60I/F76Y/I96L/L162R/M171V/P40L/Q125E/R42F/V115G/Y59C); construct: purified from EBV transformed homozygous cell lines or single MHC allele transfected 721.221, C1R, or fibroblast lines; made in house; test: HLA-DR radioligand binding inhibition assay, DRB1*0101; details: IC50 nM purified HLA DRB1 *0101, purified HLA DRB1*0101
value_kind: IC50 (nM)
Give the value, in units of nM, as a plain number.

Write down IC50 measured for item CSCC[C@H](NC(=O)CNC(=O)[C@H](CC(C)C)NC(=O)[C@H](CC(=O)O)NC(=O)CNC(=O)[C@@H](N)CC(=O)O)C(=O)NCC(=O)N[C@@H](C)C(=O)N[C@@H](C)C(=O)N[C@@H](CCCCN)C(=O)NCC(=O)N[C@@H](CC(C)C)C(=O)N[C@@H](CCC(N)=O)C(=O)N[C@@H](CO)C(=O)N[C@@H](CC(C)C)C(=O)O [Peptide 9019.0097]
110

---

target: purified HLA DRB1*1101 (Homo sapiens, UniProt P01903+P01911, A100R/A169T/A87E/I96F/K41T/L162R/M171V/P40S/Q125H/Q178H/Q39Y/Q99D/R42S/S66Y/T262R/V115G/W38E); construct: purified from EBV transformed homozygous cell lines or single MHC allele transfected 721.221, C1R, or fibroblast lines; made in house; assay: HLA-DR radioligand binding inhibition assay, DRB1*1101; conditions: IC50 nM purified HLA DRB1 *1101, purified HLA DRB1*1101
Sequence (P01903 26-254, other chains not shown): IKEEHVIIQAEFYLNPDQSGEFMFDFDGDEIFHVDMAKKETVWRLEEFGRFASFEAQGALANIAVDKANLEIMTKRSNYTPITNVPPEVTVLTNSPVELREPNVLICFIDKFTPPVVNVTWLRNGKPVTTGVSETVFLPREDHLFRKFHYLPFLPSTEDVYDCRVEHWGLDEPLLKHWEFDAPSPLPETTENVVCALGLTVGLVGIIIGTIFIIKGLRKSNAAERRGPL
value_kind: IC50 (nM)
Give the value, in units of nM, as a plain number.

>  <compound>
CC[C@H](C)[C@H](NC(=O)CNC(=O)[C@H](CC(C)C)NC(=O)CNC(=O)[C@H](CCC(N)=O)NC(=O)[C@H](CC(C)C)NC(=O)[C@@H](NC(=O)[C@H](CC(C)C)NC(=O)[C@@H](N)CO)[C@@H](C)O)C(=O)N[C@@H](CO)C(=O)N[C@@H](Cc1c[nH]c2ccccc12)C(=O)N[C@@H](CC(C)C)C(=O)NCC(=O)N[C@@H](CC(C)C)C(=O)N[C@@H](CCCNC(=N)N)C(=O)O [Peptide 9019.0055]

>  <display_unit>
nM

>  <IC50>
6310

$$$$

Continue with the compound presented below.
Write down IC50 measured for item CSCC[C@H](NC(=O)[C@H](CC(N)=O)NC(=O)[C@H](CCC(N)=O)NC(=O)[C@H](CCC(N)=O)NC(=O)[C@H](C)NC(=O)[C@H](CCC(N)=O)NC(=O)[C@H](CCCNC(=N)N)NC(=O)[C@H](CC(C)C)NC(=O)[C@H](CO)NC(=O)[C@H](CO)NC(=O)[C@H](CCC(=O)O)NC(=O)[C@H](CC(C)C)NC(=O)[C@H](CC(C)C)NC(=O)[C@H](C)NC(=O)[C@@H](N)CCC(=O)O)C(=O)O [Peptide 9019.0014]
756

---

tested on: 15 different HLA-DR molecules; assay: HLA-DR binding assays, panel of 15 different HLA-DR molecules (breadth of binding); conditions: number of the 15 HLA-DR molecules bound (binders: 1000 nM or better)
Attribute: Total XRN
API doc: respond with a numeric literal and nothing else, no unit.

Write down Total XRN measured for item CC[C@H](C)[C@H](NC(=O)[C@@H](NC(=O)[C@H](Cc1c[nH]cn1)NC(=O)[C@H](CC(C)C)NC(=O)[C@@H](NC(=O)[C@H](CC(C)C)NC(=O)[C@@H](N)Cc1ccccc1)[C@@H](C)O)C(C)C)C(=O)N[C@@H](CCCCN)C(=O)N[C@@H](CO)C(=O)N[C@@H](CC(=O)O)C(=O)N[C@@H](CC(C)C)C(=O)N[C@H](C(=O)N[C@@H](CC(N)=O)C(=O)N[C@@H](CCC(=O)O)C(=O)N[C@@H](CCC(=O)O)C(=O)O)C(C)C [Peptide 9019.0114]
11

Write down Total XRN measured for item CC[C@H](C)[C@H](NC(=O)[C@@H](NC(=O)[C@H](CC(C)C)NC(=O)[C@H](CCCCN)NC(=O)[C@H](C)NC(=O)[C@@H](N)[C@@H](C)O)[C@@H](C)O)C(=O)N[C@@H](CCC(=O)O)C(=O)N[C@@H](CO)C(=O)N[C@H](C(=O)N1CCC[C@H]1C(=O)N[C@@H](Cc1ccccc1)C(=O)N[C@@H](CC(N)=O)C(=O)N[C@H](C(=O)N[C@@H](C)C(=O)N[C@@H](CCC(=O)O)C(=O)O)C(C)C)[C@@H](C)O [Peptide 9019.0106]
9
